B1: Zinc finger homeobox protein 3, residues 2244 to 2299; numbered along this chain, Q15911 (parent)
chain: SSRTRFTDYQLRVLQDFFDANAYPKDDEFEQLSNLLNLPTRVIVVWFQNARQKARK

Variants of: B1
run description: abundance fitness (aPCA) (normalised: wild type 0, dead -1); higher = more abundant; growth selection in yeast, the domain comes from the species named
condition: Homo sapiens
# cutoff -0.3 applies to abundance fitness; >= gives Y, < gives N

mutation_label=N34R group_label=Y
mutation_label=L38N group_label=N
mutation_label=N37I group_label=Y
mutation_label=L14S group_label=N
mutation_label=D8G group_label=Y
mutation_label=L32T group_label=N
mutation_label=K25Q group_label=Y
mutation_label=D27W group_label=Y
mutation_label=Y23S group_label=Y
mutation_label=D27I group_label=Y
mutation_label=Y9G group_label=Y
